# Experiment notes: modulators of HCV replicon luciferase signal, primary screen, HCV replication inhibitor project, Huh7 cells, luciferase reporter (AID 1109);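 further: huh7 hepatoma cells harbouring a luciferase neomycin HCV replicon reporter; luciferase luminescence as measure of HCV replicon replication; test concentration not given here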
# Protocol conditions: 48 h, higher = more signal
Recorded z-score, one value per entry.
Lab note: record the figure alone, no unit after it.

Some entries whose results are on file:
Compound: CC1CC/C=C\[C@H]2OC34C=CCN(C(C)C)C(=O)[C@H]3N(CCCCCO)C(=O)[C@@H]4C2C(=O)O1 (stereo partly drawn)
Parameter: z-score
Reported: 0.205

Compound: CC(C)C(O)C1C=CC2C(=O)N(C)C(=O)C2N1Nc1ccccc1 (stereo not drawn)
Parameter: z-score
Reported: 0.247

Compound: COC(=O)C[C@H]1O[C@]2(C(=O)N(C)c3ccccc32)[C@@H](C)[C@@H]1[Si](C)(C)c1ccc(C)cc1
Parameter: z-score
Reported: -2.92

Problem: // fetch z-score given entry C[n+]1ccc(CCCO)cc1
Result: -0.125

###

# System: Torsin-1A-interacting protein 1 (Homo sapiens) (UniProt Q5JTV8)
# Sequence (Q5JTV8 whole entry, looked up): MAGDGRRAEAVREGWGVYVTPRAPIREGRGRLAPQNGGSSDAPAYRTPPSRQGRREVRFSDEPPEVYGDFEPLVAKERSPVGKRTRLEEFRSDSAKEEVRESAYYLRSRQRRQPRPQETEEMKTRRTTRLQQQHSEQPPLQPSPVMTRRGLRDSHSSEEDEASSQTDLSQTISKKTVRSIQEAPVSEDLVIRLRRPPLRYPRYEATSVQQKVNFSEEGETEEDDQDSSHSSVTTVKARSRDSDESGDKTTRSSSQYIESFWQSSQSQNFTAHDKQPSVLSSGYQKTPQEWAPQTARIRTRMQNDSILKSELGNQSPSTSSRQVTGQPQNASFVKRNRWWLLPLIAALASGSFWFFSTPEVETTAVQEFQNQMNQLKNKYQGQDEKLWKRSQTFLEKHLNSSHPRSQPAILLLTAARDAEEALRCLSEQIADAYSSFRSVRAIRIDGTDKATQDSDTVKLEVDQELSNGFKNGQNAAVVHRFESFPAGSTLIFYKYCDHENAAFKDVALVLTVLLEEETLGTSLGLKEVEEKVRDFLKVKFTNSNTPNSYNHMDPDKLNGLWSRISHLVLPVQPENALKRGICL
# Experiment notes: LAP1 binders from COS7 cell lysate, primary screen, small-molecule microarray, 635/667 nm fluorescence (AID 1116)
# Protocol conditions: COS7-hLAP1 lysate binding, 635 nm fluorescence, higher = more signal
Please use satisfied whenever composite z-score is not below 0.9, and not satisfied whenever it is.

Compound: CCOC(=O)C[C@H]1[C@H](OC(=O)c2ccc(-c3ccccc3)cc2)[C@@H](NC(=O)c2ccc3ccccc3n2)c2cc(OCCCO)ccc2N1C(=O)c1ccccc1
Qualitative label: not satisfied

Problem: Check the entry COc1ccc(C(O)C2C=CC3C(=O)N(C)C(=O)C3N2N2CCCCC2)cc1 (stereo not drawn) : does composite z-score equal or exceed 0.9?
Result: satisfied

Problem: Check the entry COC(=O)C[C@H]1O[C@]2(C(=O)N(C)c3ccccc32)[C@@H](C)[C@@H]1[Si](C)(C)c1ccc(C)cc1 : does composite z-score equal or exceed 0.9?
Result: not satisfied

Problem: Check the entry CN1C(=O)C2C(C1=O)C1C=C(c3ccc(CO)cc3)C2C(c2cccs2)N1Cc1cccc(OC(F)(F)F)c1 (stereo not drawn) : does composite z-score equal or exceed 0.9?
Result: not satisfied

Problem: Check the entry CN(C)C(=O)[C@]1(CCC(=O)OC(C)(C)C)N=C(c2ccc(OCCCO)cc2)O[C@@H]1c1ccccc1 : does composite z-score equal or exceed 0.9?
Result: satisfied

Problem: Check the entry [N-]=[N+]=NCc1ccccc1C[C@]1(C(=O)NCC(O)CO)N=C(c2ccc(OCCCO)cc2)O[C@H]1c1ccccc1CN=[N+]=[N-] (stereo partly drawn) : does composite z-score equal or exceed 0.9?
Result: satisfied

Problem: Check the entry NC(=O)N1C(=O)C2C(C1=O)C1C=C(c3ccc(CO)cc3)C2C(C2CC2)N1Cc1sc2ccccc2c1Cl (stereo not drawn) : does composite z-score equal or exceed 0.9?
Result: satisfied

Problem: Check the entry COC(=O)[C@@]1(Cc2ccc(F)cc2)[C@H]2c3cc(C(=O)N4CCCC4)n(CCF)c3C[C@H]2CN1C(=O)c1ccccc1 : does composite z-score equal or exceed 0.9?
Result: satisfied

###

# System: Neuregulin-1 EGF-like domain
# Experiment notes: binders of neuregulin-1 EGF-like domain, primary screen, biochemical, small-molecule microarray, 635 nm fluorescence (AID 1081);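 further: binding of the protein to compounds printed on small-molecule microarray slides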
# Protocol conditions: small-molecule microarray binding, higher = more signal
Parameter: composite z-score
Lab note: record the figure alone, no unit after it.

Compound: COCCOC(=O)N1C(=O)[C@@]2(c3cc(C#CCC(C(=O)OC)C(=O)OC)ccc31)[C@H](c1ccc(OCCO)cc1)N1[C@H](c3ccccc3)[C@H](c3ccccc3)OC(=O)[C@H]1[C@@H]2C(=O)N1CCN(c2ncccn2)CC1
Parameter: composite z-score
Reported: 1.14

Compound: C=CCC(OC(C)=O)[C@@H]1[C@@H](N(Cc2cc3ccccc3o2)C(=O)Cc2ccc(F)cc2)c2cc(OCCCO)ccc2N1C(=O)c1ccc2ccccc2n1 (some centres not stated)
Parameter: composite z-score
Reported: -0.275

Compound: CCCc1cccc(=O)o1
Parameter: composite z-score
Reported: 1.24

Compound: COc1ccc(C(O)C2C=CC3C(=O)N(c4ccccc4)C(=O)C3N2Nc2ccc(C#N)cc2)c2ccccc12 (configuration not stated)
Parameter: composite z-score
Reported: 1.11

Compound: Cc1ccc(S[C@]2(C(=O)NC(C)C)CC(=O)N(C3Cc4ccccc4C3)[C@@H]2c2ccc(CO)cc2I)cc1
Parameter: composite z-score
Reported: 0.381

Compound: CCOC(=O)C1=CC[C@@H](c2ccccc2C(F)(F)F)N(S(=O)(=O)c2ccc(C)cc2)C1
Parameter: composite z-score
Reported: 1.28

Let's switch to this compound now.
Problem: Lab note: record composite z-score of CN1C(=O)[C@@]2(CCS(=O)(=O)c3ccccc3)N=C(c3ccc(OCCCO)cc3)O[C@H]2c2ccccc21 tested on Neuregulin-1 EGF-like domain.
Result: 1.34

Where do these numbers come from? They come from PubChem BioAssay.
